Assay: Human Equivalent Dose (HED) calculation based on body surface area
Settings: mouse
propertyName: NOAEL (mg/kg)
Kindly answer with a numeric value in mg/kg, unit omitted.

So what's the measured NOAEL for this one? CCOCc1nc2c(N)nc3ccccc3c2n1CC(C)(C)O [R-848, Resiquimod, reference compound]
1.2
